Ref: the supplement of paper PMC5998384

Tested on: HeLa Kyoto;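 further: synchronized HeLa Kyoto cells, proteins quantified by TMT10plex mass spectrometry, three biological replicates, mitosis taken 0.5 h after nocodazole release, G1/S directly after double thymidine block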
Test: thermal stability score vs G1/S (z-score of summed log2 fold changes over temperatures); higher = more thermally stable than in G1/S
Settings: cell cycle stage: mitosis
thermal stability score values for the sequences below.
Just the number, please, no unit after it.

BIOSEQUENCE	OBS VALUE
MDKLKKVLSGQDTEDRSGLSEVVEASSLSWSTRIKGFIACFAIGILCSLLGTVLLWVPRKGLHLFAVFYTFGNIASIGSTIFLMGPVKQLKRMFEPTRLIATIMVLLCFALTLCSAFWWHNKGLALIFCILQSLALTWYSLSFIPFARDAVKKCFAVCLA [SFT2D2]	-0.774
MAAAPLKVCIVGSGNWGSAVAKIIGNNVKKLQKFASTVKMWVFEETVNGRKLTDIINNDHENVKYLPGHKLPENVVAMSNLSEAVQDADLLVFVIPHQFIHRICDEITGRVPKKALGITLIKGIDEGPEGLKLISDIIREKMGIDISVLMGANIANEVAAEKFCETTIGSKVMENGLLFKELLQTPNFRITVVDDADTVELCGALKNIVAVGAGFCDGLRCGDNTKAAVIRLGLMEMIAFARIFCKGQVSTATFLESCGVADLITTCYGGRNRRVAEAFARTGKTIEELEKEMLNGQKLQGPQTSAEVYRILKQKGLLDKFPLFTAVYQICYESRPVQEMLSCLQSHPEHT [GPD1L]	-0.000421

What measured thermal stability score goes with MAGGGAGDPGLGAAAAPAPETREHLFKVLVIGELGVGKTSIIKRYVHQLFSQHYRATIGVDFALKVLNWDSRTLVRLQLWDIAGQERFGNMTRVYYKEAVGAFVVFDISRSSTFEAVLKWKSDLDSKVHLPNGSPIPAVLLANKCDQNKDSSQSPSQVDQFCKEHGFAGWFETSAKDNINIEEAARFLVEKILVNHQSFPNEENDVDKIKLDQETLRAENKSQCC [RAB32] ?
2.79

Lookup MGLLRIMMPPKLQLLAVVAFAVAMLFLENQIQKLEESRSKLERAIARHEVREIEQRHTMDGPRQDATLDEEEDMVIIYNRVPKTASTSFTNIAYDLCAKNKYHVLHINTTKNNPVMSLQDQVRFVKNITSWKEMKPGFYHGHVSYLDFAKFGVKKKPIYINVIRDPIERLVSYYYFLRFGDDYRPGLRRRKQGDKKTFDECVAEGGSDCAPEKLWLQIPFFCGHSSECWNVGSRWAMDQAKYNLINEYFLVGVTEELEDFIMLLEAALPRFFRGATELYRTGKKSHLRKTTEKKLPTKQTIAKLQQSDIWKMENEFYEFALEQFQFIRAHAVREKDGDLYILAQNFFYEKIYPKSN [HS2ST1]
0.814

Lookup MAERQEEQRGSPPLRAEGKADAEVKLILYHWTHSFSSQKVRLVIAEKALKCEEHDVSLPLSEHNEPWFMRLNSTGEVPVLIHGENIICEATQIIDYLEQTFLDERTPRLMPDKESMYYPRVQHYRELLDSLPMDAYTHGCILHPELTVDSMIPAYATTRIRSQIGNTESELKKLAEENPDLQEAYIAKQKRLKSKLLDHDNVKYLKKILDELEKVLDQVETELQRRNEETPEEGQQPWLCGESFTLADVSLAVTLHRLKFLGFARRNWGNGKRPNLETYYERVLKRKTFNKVLGHVNNILISAVLPTAFRVAKKRAPKVLGTTLVVGLLAGVGYFAFMLFRKRLGSMILAFRPRPNYF [GDAP1]
1.45

Lookup MGASARLLRAVIMGAPGSGKGTVSSRITTHFELKHLSSGDLLRDNMLRGTEIGVLAKAFIDQGKLIPDDVMTRLALHELKNLTQYSWLLDGFPRTLPQAEALDRAYQIDTVINLNVPFEVIKQRLTARWIHPASGRVYNIEFNPPKTVGIDDLTGEPLIQREDDKPETVIKRLKAYEDQTKPVLEYYQKKGVLETFSGTETNKIWPYVYAFLQTKVPQRSQKASVTP [AK3]
-2.48
